Where these numbers come from: patent US8193351B2

System: HCT116 cells
Assay: Measurement of cell growth inhibition (Cell Counting Kit-8, four days)
Format: cell-based
Settings: Homo sapiens, HCT-116, 96 h; HCT116 colon cancer cell line, four days culture; read-out: Cell growth inhibitory activity (IC50, μM) HCT116
property: IC50 (µM)

A selection of reference data follows.
QUERY: What does the data say about its IC50? Entry: COc1ccc(OC)c(Sc2cc(-c3ccc(OCCCO)cc3C)nc(N)n2)c1
RESULT: 14.5

QUERY: Could you do the same for CC(=O)NCCCSc1cc(-c2c(Cl)cc3c4c(cccc24)COC3)nc(N)n1 , please?
RESULT: 0.2

QUERY: Could you do the same for Nc1nc(SC2CCCCC2)nc(-c2c(Cl)cc3c4c(cccc24)COC3)n1 , please?
RESULT: 9.2

A: COc1ccc(OC)c(Sc2cc(-c3cc(OCC#N)c(Cl)cc3Cl)nc(N)n2)c1
B: CNC(=O)CCSc1cc(-c2c(Cl)cc3c4c(cccc24)COC3)nc(N)n1
QUERY: Which item exceeds the other in IC50, A or B ? State the label of the item chosen.
RESULT: A
(A: 1.4 µM, B: 0.22 µM)

###

Target: Human HSP90 alpha (Homo sapiens, UniProt P07900)
Construct: made in house; host or cells: E. coli BL21 codon plus (Stratagene)
Test: Measurement of HSP90 enzyme inhibitory activity (ATPase, malachite green)
Type: biochemical
Conditions: purified human HSP90 alpha, 1 mM ATP added, 37° C., two hours; read-out: Enzyme inhibitory activity (IC50, μM) Human HSP 90α
property: IC50 (µM)

QUERY: What does the data say about its IC50? Entry: CNC(=O)C(C)CSc1cc(-c2c(Cl)cc3c4c(cccc24)COC3)nc(N)n1 (stereo not drawn)
RESULT: 1.7

QUERY: Could you do the same for CC(CSc1cc(-c2c(Cl)cc3c4c(cccc24)COC3)nc(N)n1)C(N)=O (stereo not drawn) , please?
RESULT: 1.3

QUERY: Could you do the same for CS(=O)(=O)NCCSc1cc(-c2c(Cl)cc3c4c(cccc24)COC3)nc(N)n1 , please?
RESULT: 1

QUERY: Could you do the same for Nc1nc(SCCC(=O)NC[C@@H](O)CO)cc(-c2c(Cl)cc3c4c(cccc24)COC3)n1 , please?
RESULT: 1.4

QUERY: Could you do the same for CC(CSc1nc(N)nc(-c2c(Cl)cc3c4c(cccc24)COC3)n1)C(=O)NCCO (stereo not drawn) , please?
RESULT: 1.5

QUERY: Could you do the same for CNC(=O)CCSc1cc(-c2c(Cl)cc3c4c(cccc24)COC3)nc(N)n1 , please?
RESULT: 1.4

###

Tested on: HCT116 cells
Experiment: Measurement of cell growth inhibition (Cell Counting Kit-8, four days)
Assay type: cell-based
Settings: Homo sapiens, HCT-116, 96 h; HCT116 colon cancer cell line, four days culture; read-out: Cell growth inhibitory activity (IC50, μM) HCT116
property: IC50 (µM)

A selection of reference data follows.
QUERY: What does the data say about its IC50? Entry: CC(=O)NCCSc1nc(N)nc(-c2cc(-c3ncccn3)c(Cl)cc2Cl)n1
RESULT: 0.66

QUERY: Could you do the same for CC(CSc1cc(-c2c(Cl)cc3c4c(cccc24)COC3)nc(N)n1)C(=O)NCCO (centres unmarked) , please?
RESULT: 0.21

QUERY: Could you do the same for Nc1nc(SCc2ccccc2)nc(-c2cc(OCc3ccccc3)c(Cl)cc2Cl)n1 , please?
RESULT: 8.5

QUERY: Could you do the same for NC(=O)CCSc1cc(-c2c(Cl)cc3c4c(cccc24)COC3)nc(N)n1 , please?
RESULT: 0.45

QUERY: Could you do the same for COc1ccc(OC)c(Sc2cc(-c3cc(OCc4ccccc4)c(Cl)cc3Cl)nc(N)n2)c1 , please?
RESULT: 42.9

QUERY: Could you do the same for COc1ccc(OC)c(Sc2cc(-c3ccc(OCC#N)cc3C)nc(N)n2)c1 , please?
RESULT: 4.1

a: CS(=O)(=O)NCCSc1cc(-c2c(Cl)cc3c4c(cccc24)COC3)nc(N)n1
b: COC(=O)CSc1nc(N)nc(-c2c(Cl)cc3c4c(cccc24)COC3)n1
QUERY: Which item exceeds the other in IC50, a or b ? State the label of the item chosen.
RESULT: a
(a: 0.31 µM, b: 0.2 µM)
